System: MCF7 breast | Read-out: GI50

Consider the molecule `Cc1nc(Nc2nc3ccccc3o2)nc(-c2cccc([N+](=O)[O-])c2)c1C(=O)Nc1ccc(F)c(Cl)c1` . State its measured GI50.
2040 nM

Consider the molecule `Oc1ccc(Cl)cc1CNc1nc2ccccc2[nH]1` . State its measured GI50.
10400 nM

Consider the molecule `Cc1ccc(-c2nc(N3CCCNCC3)c3oc(-c4ccc(C)cc4)nc3n2)cc1` . State its measured GI50.
1850 nM

Consider the molecule `Clc1nc(Cl)c2ncn(Cc3ccc(Cn4cnc5c(Cl)nc(Cl)nc54)cc3)c2n1` . State its measured GI50.
2220 nM

Consider the molecule `CN(/N=N/c1nc(OCc2ccccc2)c2[nH]cnc2n1)C(=O)Oc1ccc([N+](=O)[O-])cc1` . State its measured GI50.
12400 nM

Consider the molecule `CC(C)CCN[C@@H]1CCc2cc(O)c(N3CC(=O)NS3(=O)=O)c(F)c2C1` . State its measured GI50.
> 100000 nM

Consider the molecule C/C=C(\C)C(=O)N[C@H]1C(O)C[C@]2(C)C3CC[C@@]4(C)C(CC[C@@H]4C(C)N(C)C)C3CCC2C1O (some centres undefined) . State its measured GI50.
2890 nM

Consider the molecule `Cc1cc(OCc2nnc3n2N=C(c2ccc(Cl)cc2Cl)CS3)ccc1Cl` . State its measured GI50.
39100 nM

Consider the molecule `C=C1c2c(Cl)ccc(O)c2C(O)=C2C(=O)[C@]3(O)C(O)=C(C(N)=O)C(=O)[C@@H](N(C)C)[C@@H]3[C@@H](O)[C@H]12` . State its measured GI50.
1760 nM
